# target or test system: DGKζ (Homo sapiens (Human))
quantity name: IC50 (nM)

CC[C@H]1CN(C(C)c2ccc(OC3COC3)c(C)c2)[C@H](CC)CN1c1cc(=O)n(C)c2cn(CC#N)nc12 (single isomer, unassigned) [Compound A21a]
1470

I. [2H]C([2H])([2H])C(c1ccc2nc(C)sc2n1)N1C[C@H](CC)N(c2cc(=O)n(C([2H])([2H])[2H])c3cn(CC#N)nc23)C[C@H]1CC (single isomer, unassigned) [Compound A142a]
II. CC[C@H]1CN(C(C)c2ccc3ncsc3n2)[C@H](CC)CN1c1nc(=O)n(C)c2cn(CC#N)nc12 (single isomer, unassigned) [Compound A126b]
III. CC[C@H]1CN(C(C)c2ccn3nc(C)cc3n2)[C@H](CC)CN1c1nc(=O)n(C)c2cn(CC#N)nc12 (single isomer, unassigned) [Compound A157b]
IV. CC[C@@H]1CN(c2cc(=O)n(C)c3cn(CC#N)nc23)[C@@H](C)CN1C(C)c1ccc2ncsc2n1 (single isomer, unassigned) [Compound A100b]
V. CC[C@H]1CN(C(C)c2cc3scnc3cc2F)[C@H](CC)CN1c1cc(=O)n(C)c2cn(CC#N)nc12 (single isomer, unassigned) [Compound A103b]
stdin: Hey, can you sort those compounds up there by IC50, smallest first? In your reply, arrange the labels in the requested order.
stdout: II, III, V, I, IV

1. CC[C@H]1CN(C(C)c2ccc3ncoc3c2)[C@H](CC)CN1c1cc(=O)n(C)c2cn(CC#N)nc12 (single isomer, unassigned) [Compound A84a]
2. CC[C@H]1CN(C(C)c2ccc3nc(OC4CC4)sc3n2)[C@H](CC)CN1c1cc(=O)n(C)c2cn(CC#N)nc12 (single isomer, unassigned) [Compound A146a]
3. CC[C@H]1CN(C(C)c2nc(C)c(C)s2)[C@H](CC)CN1c1cc(=O)n(C)c2cn(CC#N)nc12 (single isomer, unassigned) [Compound A35a]
4. CC[C@@H]1CN(c2cc(=O)n(C)c3cn(CC#N)nc23)[C@@H](C)CN1[C@@H](C)c1ccc2ncoc2c1 (single isomer, unassigned) [Compound A85a]
stdin: Endpoint returns the given compounds ordered by ascending IC50. Please respond with the labels ordered as the question requires.
stdout: 1, 4, 3, 2

a. CC(c1cc2c(cc1F)OCC(C)(C)O2)N1C[C@H](C)N(c2cc(=O)n(C)c3cn(CC#N)nc23)C[C@H]1C (single isomer, unassigned) [Compound A179a]
b. CC[C@@H]1CN(c2cc(=O)n(C)c3cn(CC#N)nc23)[C@@H](C)CN1C(C)c1ccc2ncsc2n1 (single isomer, unassigned) [Compound A100a]
stdin: Thinking about recorded IC50 values, which is higher, a or b ? In your reply, give the label of the chosen option.
stdout: a

* * *

# target or test system: DGKζ (Homo sapiens (Human), UniProt Q13574)
# Sequence (Q13574 other isoform, or with tags, fused parts or gaps): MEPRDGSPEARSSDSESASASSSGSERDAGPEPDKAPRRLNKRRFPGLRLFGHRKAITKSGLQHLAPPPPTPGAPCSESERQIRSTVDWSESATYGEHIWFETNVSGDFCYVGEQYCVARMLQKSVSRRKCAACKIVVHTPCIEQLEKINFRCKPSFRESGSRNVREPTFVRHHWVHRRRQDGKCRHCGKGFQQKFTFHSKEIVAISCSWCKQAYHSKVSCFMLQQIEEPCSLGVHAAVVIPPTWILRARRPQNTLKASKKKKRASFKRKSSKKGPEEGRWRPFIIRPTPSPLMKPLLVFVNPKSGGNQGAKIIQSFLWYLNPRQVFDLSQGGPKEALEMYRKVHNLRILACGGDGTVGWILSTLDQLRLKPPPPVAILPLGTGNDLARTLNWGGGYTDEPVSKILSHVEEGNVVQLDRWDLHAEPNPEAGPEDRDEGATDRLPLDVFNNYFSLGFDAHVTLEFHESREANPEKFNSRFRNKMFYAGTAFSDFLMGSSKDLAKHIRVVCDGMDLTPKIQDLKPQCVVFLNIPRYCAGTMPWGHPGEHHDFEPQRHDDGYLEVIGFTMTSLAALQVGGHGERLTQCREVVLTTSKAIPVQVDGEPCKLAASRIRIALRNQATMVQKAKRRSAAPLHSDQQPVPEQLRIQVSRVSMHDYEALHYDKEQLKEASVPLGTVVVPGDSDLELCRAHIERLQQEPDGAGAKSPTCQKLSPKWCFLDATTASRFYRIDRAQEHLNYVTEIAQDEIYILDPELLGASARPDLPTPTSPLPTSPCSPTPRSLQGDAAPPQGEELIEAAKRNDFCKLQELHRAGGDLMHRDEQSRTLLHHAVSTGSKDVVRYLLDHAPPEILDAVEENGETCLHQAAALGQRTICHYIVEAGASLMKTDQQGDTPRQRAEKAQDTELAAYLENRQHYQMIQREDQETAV
quantity name: IC50 (nM)

Before answering, review these 2 worked examples.
CC[C@H]1CN(C(C)c2cc3c(cn2)OCC3)[C@H](CC)CN1c1cc(=O)n(C)c2cn(CC#N)nc12 (stereo partly drawn)
552
CC[C@H]1CN(C(C)c2ccn3ccnc3c2)[C@H](CC)CN1c1cc(=O)n(C)c2cn(CC#N)nc12 (single isomer, unassigned) [Compound A80b]
6900

1. CCC(c1ccn2nc(C)cc2n1)N1C[C@H](C)N(c2cc(=O)n(C)c3cn(CC#N)nc23)C[C@H]1CC (single isomer, unassigned) [Compound A171b]
2. CC[C@H]1CN(C(C)c2ccc3c(c2F)OC(C)(C)O3)[C@H](CC)CN1c1cc(=O)n(C)c2cn(CC#N)nc12 (stereo partly drawn)
3. CC[C@H]1CN(C(C)c2ccc3c(C)cnn3c2)[C@H](CC)CN1c1cc(=O)n(C)c2cn(CC#N)nc12 (single isomer, unassigned) [Compound A204b]
4. CC[C@H]1CN(C(C)c2ccc3scnc3c2F)[C@H](CC)CN1c1cc(=O)n(C)c2cn(CC#N)nc12 (single isomer, unassigned) [Compound A110a]
stdin: Arrange the 4 entries by IC50 so the values rise. In plain terms: list the labels in the order you were asked to.
stdout: 2, 4, 3, 1
(2: 4 nM, 4: 31 nM, 3: 971 nM, 1: 5430 nM)

* * *

Test system DGKα (Homo sapiens (Human), UniProt P23743), IC50 listed for each of the compounds. Also: full length DGKα 7.5 nM.
quantity name: IC50 (nM)

CC[C@H]1CN(C(C)c2ccc(CS(C)(=O)=O)cc2)[C@H](CC)CN1c1cc(=O)n(C)c2cn(CC#N)nc12 (stereo partly shown)
91
CC[C@H]1CN(C(C)c2ccc3nc(C)cn3n2)[C@H](CC)CN1c1cc(=O)n(C)c2cn(CC#N)nc12 (single isomer, unassigned) [Compound A149a]
1110
CC[C@H]1CN(C(C)c2ccc3ocnc3c2)[C@H](CC)CN1c1cc(=O)n(C)c2cn(CC#N)nc12 (stereo partly shown)
58
CC[C@H]1CN(C(C)c2cnc3ncsc3c2)[C@H](CC)CN1c1cc(=O)n(C)c2cn(CC#N)nc12 (single isomer, unassigned) [Compound A98a]
5510

I. CC[C@H]1CN(C(C)c2cnc3c(c2)CCO3)[C@H](CC)CN1c1cc(=O)n(C)c2cn(CC#N)nc12 (stereo partly shown)
II. CC[C@H]1CN(C(C)c2ccc(OC)nc2)[C@H](CC)CN1c1cc(=O)n(C)c2cn(CC#N)nc12 (stereo partly shown)
III. CC[C@H]1CN(C(C)c2cc(F)c3ncsc3c2)[C@H](CC)CN1c1cc(=O)n(C)c2cn(CC#N)nc12 (single isomer, unassigned) [Compound A101a]
IV. CC#CCn1cc2c(n1)c(N1C[C@@H](CC)N(C(C)c3ccc4nc(C)sc4c3F)C[C@@H]1C)cc(=O)n2C (single isomer, unassigned) [Compound A116b]
stdin: Arrange by IC50, high to low. Answer format: the labels, in the requested order.
stdout: IV, I, III, II
(IV: 21000 nM, I: 5820 nM, III: 2610 nM, II: 347 nM)

* * *

# target or test system: DGKα (Homo sapiens (Human)); also: full length DGKα 7.5 nM
quantity name: IC50 (nM)

CC[C@H]1CN(C(C)c2ccc3nc(COC)sc3c2)[C@H](CC)CN1c1cc(=O)n(C)c2cn(CC#N)nc12 (single isomer, unassigned) [Compound A145a]
545

I. CC[C@H]1CN(C(C)c2ccc(OC)cc2)[C@H](CC)CN1c1cc(=O)n(C)c2cn(CC#N)nc12 (single isomer, unassigned) [Compound A34a]
II. CC[C@H]1CN(C(C)c2ccc3ccnn3c2)[C@H](CC)CN1c1cc(=O)n(C)c2cn(CC#N)nc12 (single isomer, unassigned) [Compound A77a]
stdin: Higher IC50: I or II ? Please identify the chosen entry by its label.
stdout: II

* * *

The reader will find pIC50 measurements below, all made with UniProt P23743.
pIC50: −log10 of the molar value.
quantity name: pIC50

CC[C@H]1CN(C(C)c2ccc3c(C)cnn3c2)[C@H](CC)CN1c1cc(=O)n(C)c2cn(CC#N)nc12 (single isomer, unassigned) [Compound A204a]
6.33

1. CC[C@H]1CN(C(C)c2ccc3ncc(F)n3n2)[C@H](CC)CN1c1cc(=O)n(C)c2cn(CC#N)nc12 (single isomer, unassigned) [Compound A168a]
2. CC[C@H]1CN(C(C)c2ccc3cncn3c2)[C@H](CC)CN1c1cc(=O)n(C)c2cn(CC#N)nc12 (single isomer, unassigned) [Compound A83a]
3. CC#CCn1cc2c(n1)c(N1C[C@@H](CC)N(C(C)c3ccc(C4CC4)nc3)C[C@@H]1CC)cc(=O)n2C (single isomer, unassigned) [Compound A39a]
4. CCC(c1ccc(C(F)(F)F)cc1)N1C[C@H](CC)N(c2cc(=O)n(C)c3cn(CC#N)nc23)C[C@H]1CC (single isomer, unassigned) [Compound A135a]
stdin: Returns the items ordered by pIC50, from maximum to minimum. In your reply, arrange the labels in the requested order.
stdout: 3, 4, 2, 1

* * *

# target or test system: DGKα (Homo sapiens (Human), UniProt P23743); also: full length DGKα 7.5 nM
# Sequence (P23743 whole entry): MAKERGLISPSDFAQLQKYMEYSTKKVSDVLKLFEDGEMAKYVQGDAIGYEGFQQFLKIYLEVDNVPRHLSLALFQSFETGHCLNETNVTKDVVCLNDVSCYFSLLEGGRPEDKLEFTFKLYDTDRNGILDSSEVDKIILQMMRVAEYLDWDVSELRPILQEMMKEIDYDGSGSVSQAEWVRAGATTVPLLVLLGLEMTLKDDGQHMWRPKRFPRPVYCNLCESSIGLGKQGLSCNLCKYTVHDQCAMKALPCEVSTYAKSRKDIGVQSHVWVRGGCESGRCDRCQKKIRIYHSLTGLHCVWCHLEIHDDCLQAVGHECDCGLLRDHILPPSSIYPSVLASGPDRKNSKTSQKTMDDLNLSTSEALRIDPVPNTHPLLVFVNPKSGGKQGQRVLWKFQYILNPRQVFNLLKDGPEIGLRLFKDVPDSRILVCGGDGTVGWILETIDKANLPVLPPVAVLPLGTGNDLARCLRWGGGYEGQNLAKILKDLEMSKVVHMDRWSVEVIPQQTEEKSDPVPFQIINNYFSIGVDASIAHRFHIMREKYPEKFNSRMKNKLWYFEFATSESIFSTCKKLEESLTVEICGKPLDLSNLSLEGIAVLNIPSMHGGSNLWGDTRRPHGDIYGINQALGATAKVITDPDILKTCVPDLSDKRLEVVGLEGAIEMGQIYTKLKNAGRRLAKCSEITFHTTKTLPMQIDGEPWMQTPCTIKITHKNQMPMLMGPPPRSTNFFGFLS
quantity name: IC50 (µM)

Recorded results for 2 compounds are shown here.
CC[C@H]1CN(C(C)c2cnc(C3CC3)cc2F)[C@H](CC)CN1c1cc(=O)n(C)c2cn(CC#N)nc12 (single isomer, unassigned) [Compound A47a]
1.19
CC#CCn1cc2c(n1)c(N1C[C@@H](CC)N(C(C)c3ccc4sc(C)nc4c3F)C[C@@H]1CC)cc(=O)n2C (single isomer, unassigned) [Compound A141b]
6.19

A. CC[C@H]1CN(C(C)c2ccc3c(n2)OCO3)[C@H](CC)CN1c1cc(=O)n(C)c2cn(CC#N)nc12 (single isomer, unassigned) [Compound A75a]
B. CC(c1ccc2c(c1F)OC(C)(C)O2)N1C[C@H](C)N(c2cc(=O)n(C)c3cn(CC#N)nc23)C[C@H]1C (stereo partly drawn)
C. CC[C@H]1CN(C(C)c2ccn3nc(F)cc3n2)[C@H](CC)CN1c1cc(=O)n(C)c2cn(CC#N)nc12 (single isomer, unassigned) [Compound A158b]
D. CC[C@H]1CN(C(C)c2ccc3nsnc3c2)[C@H](CC)CN1c1cc(=O)n(C)c2cn(CC#N)nc12 (single isomer, unassigned) [Compound A106b]
stdin: Rank entries according to their IC50, from the largest number down. Put the labels in the requested order and write them down.
stdout: B, D, A, C
